Molecular target: T1, gp130 on HepG2 B6 cells (UniProt P40189 23-918, limits assumed)
T1 sequence (looked up): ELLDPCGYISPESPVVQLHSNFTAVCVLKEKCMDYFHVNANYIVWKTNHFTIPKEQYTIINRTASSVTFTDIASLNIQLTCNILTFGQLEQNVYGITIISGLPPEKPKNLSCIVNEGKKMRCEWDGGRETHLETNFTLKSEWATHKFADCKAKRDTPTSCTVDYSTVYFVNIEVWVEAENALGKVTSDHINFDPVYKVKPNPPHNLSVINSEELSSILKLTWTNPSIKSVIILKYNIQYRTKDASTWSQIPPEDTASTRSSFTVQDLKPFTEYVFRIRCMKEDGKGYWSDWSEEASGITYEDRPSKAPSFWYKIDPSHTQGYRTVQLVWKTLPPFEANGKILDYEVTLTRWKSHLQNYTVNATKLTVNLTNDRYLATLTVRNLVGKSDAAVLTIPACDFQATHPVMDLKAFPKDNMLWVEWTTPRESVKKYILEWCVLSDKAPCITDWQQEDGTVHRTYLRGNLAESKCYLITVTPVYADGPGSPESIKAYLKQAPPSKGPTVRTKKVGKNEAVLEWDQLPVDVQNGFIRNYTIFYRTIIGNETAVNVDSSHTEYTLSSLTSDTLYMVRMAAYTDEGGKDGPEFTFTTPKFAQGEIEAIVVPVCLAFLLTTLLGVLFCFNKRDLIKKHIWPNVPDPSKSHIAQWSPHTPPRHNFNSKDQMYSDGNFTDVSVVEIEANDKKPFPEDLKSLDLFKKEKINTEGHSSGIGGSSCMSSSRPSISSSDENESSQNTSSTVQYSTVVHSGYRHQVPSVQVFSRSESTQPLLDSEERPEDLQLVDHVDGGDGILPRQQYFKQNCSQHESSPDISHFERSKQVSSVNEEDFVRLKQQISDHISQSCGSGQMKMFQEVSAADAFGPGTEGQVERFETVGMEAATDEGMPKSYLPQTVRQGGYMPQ
Assay: cell-based or functional assay
Items are presented alongside their recorded sPAP HepG2 B6 assay: Expt 2 EC50.
Report as a plain number; the unit ng/mL is understood.

Below, each entry is followed by its recorded sPAP HepG2 B6 assay: Expt 2 EC50 result.
[
  {
    "BINDER": "OSM-GST mutant Q18A (ligand, Alanine mutant of m4; also called (11)Q18A; 11 Q18A; not shown: Its linker is left out) AAIGSCSKEYRVLLGQLAKQTDLMQDTSRLLDPYIRIQGLDVPKLREHCRERPGAFPSEETLRGLGRRGFLQTLNATLGCVLHRLADLEQRLPKAQDLERSGLNIEDLEKLQMARPNILGLRNNIYCMAQLLDNSDTAEPTKAGRGASQPPTPTPASDAFQRKLEGCRFLHGYHRFMHSVGRVFSKWGESPNRSRR",
    "UNIT STRING": "ng/mL",
    "OBSERVED MEASUREMENT": 21.7
  },
  {
    "BINDER": "OSM-GST mutant K8A (ligand, not shown: a dimerising Fc or GST; large carriers; small tags and cut ends, Alanine mutant of m4; also called (2)K8A; 2 K8A) AAIGSCSAEYRVLLGQLQKQTDLMQDTSRLLDPYIRIQGLDVPKLREHCRERPGAFPSEETLRGLGRRGFLQTLNATLGCVLHRLADLEQRLPKAQDLERSGLNIEDLEKLQMARPNILGLRNNIYCMAQLLDNSDTAEPTKAGRGASQPPTPTPASDAFQRKLEGCRFLHGYHRFMHSVGRVFSKWGESPNRSRR",
    "UNIT STRING": "ng/mL",
    "OBSERVED MEASUREMENT": 12.5
  },
  {
    "BINDER": "OSM-GST mutant Y10A (ligand, not shown: a dimerising Fc or GST; large carriers; small tags and cut ends, Alanine mutant of m4; also called (4)Y10A; 4 Y10A) AAIGSCSKEARVLLGQLQKQTDLMQDTSRLLDPYIRIQGLDVPKLREHCRERPGAFPSEETLRGLGRRGFLQTLNATLGCVLHRLADLEQRLPKAQDLERSGLNIEDLEKLQMARPNILGLRNNIYCMAQLLDNSDTAEPTKAGRGASQPPTPTPASDAFQRKLEGCRFLHGYHRFMHSVGRVFSKWGESPNRSRR",
    "UNIT STRING": "ng/mL",
    "OBSERVED MEASUREMENT": 82
  },
  {
    "BINDER": "OSM-GST mutant K19A (ligand, Alanine mutant of m4; also called (12)K19A; 12 K19A; not shown: Its linker is left out) AAIGSCSKEYRVLLGQLQAQTDLMQDTSRLLDPYIRIQGLDVPKLREHCRERPGAFPSEETLRGLGRRGFLQTLNATLGCVLHRLADLEQRLPKAQDLERSGLNIEDLEKLQMARPNILGLRNNIYCMAQLLDNSDTAEPTKAGRGASQPPTPTPASDAFQRKLEGCRFLHGYHRFMHSVGRVFSKWGESPNRSRR",
    "UNIT STRING": "ng/mL",
    "OBSERVED MEASUREMENT": 11.9
  },
  {
    "BINDER": "OSM-GST mutant D26A (ligand, not shown: a dimerising Fc or GST; large carriers; small tags and cut ends, Alanine mutant of m4; also called (27)D26A; 27 D26A) AAIGSCSKEYRVLLGQLQKQTDLMQATSRLLDPYIRIQGLDVPKLREHCRERPGAFPSEETLRGLGRRGFLQTLNATLGCVLHRLADLEQRLPKAQDLERSGLNIEDLEKLQMARPNILGLRNNIYCMAQLLDNSDTAEPTKAGRGASQPPTPTPASDAFQRKLEGCRFLHGYHRFMHSVGRVFSKWGESPNRSRR",
    "UNIT STRING": "ng/mL",
    "OBSERVED MEASUREMENT": 25.5
  }
]

Next binder, please.
Task item: Give the measured sPAP HepG2 B6 assay: Expt 2 EC50 for OSM-GST mutant M113A (ligand, not shown: a dimerising Fc or GST; large carriers; small tags and cut ends, Alanine mutant of m4; also called (16)M113; 16 M113A) AAIGSCSKEYRVLLGQLQKQTDLMQDTSRLLDPYIRIQGLDVPKLREHCRERPGAFPSEETLRGLGRRGFLQTLNATLGCVLHRLADLEQRLPKAQDLERSGLNIEDLEKLQAARPNILGLRNNIYCMAQLLDNSDTAEPTKAGRGASQPPTPTPASDAFQRKLEGCRFLHGYHRFMHSVGRVFSKWGESPNRSRR
Reply: 25
